Reference source for all entries: paper PMC6753678

System: P. berghei ookinete development
condition.notes: primary screen at 1 μM, replicate B
measured.endpoint: % inhibition, Replicate B (%)
// return numeric value only (unit: %, not printed)

Prompt: # query: % inhibition, Replicate B of entry CCCCCCc1c(C)nc2cc(OC)ccc2c1O [TCMDC-138010]
Completion: 119.15

Prompt: Find the recorded % inhibition, Replicate B belonging to COc1ccc(O)c(Cc2cnc3nc(N)nc(N)c3c2C)c1.O=C(O)C(F)(F)F [TCMDC-137998] and report it.
Completion: 55.44

Prompt: Any idea what % inhibition, Replicate B was measured for Cc1[nH]c(C)c(-c2ccc(-c3ccc(OC(F)(F)F)cc3)nc2)c(=O)c1Br [TCMDC-136016] ?
Completion: 74.30

Prompt: What value of measured % inhibition, Replicate B is listed for COc1ccc(C23Oc4cc(OC)cc(OC)c4C2(O)C2(CC3c3ccccc3)SCCCS2)cc1 (stereo not drawn) [TCMDC-132098] ?
Completion: 114.13

Prompt: // lookup % inhibition, Replicate B for CCN(CC)c1nc(N)c2c(N)nc3c(c2c1C#N)C(=O)CN3Cc1ccccc1 [TCMDC-125024]
Completion: 105.52

Prompt: Data request, read-out % inhibition, Replicate B, for CCSc1ccccc1COc1c(C)nc(N)nc1N.Cl [TCMDC-131359]
Completion: 19.87

Prompt: Please look up its % inhibition, Replicate B: CCOC(=O)C1=C(C)NC2=C(C(=O)C(C(=O)OC)C(C)C2)C1c1cc(Br)c(OCC)c(OC)c1 (stereo not drawn) [TCMDC-125139]
Completion: 50.55

Prompt: # query: % inhibition, Replicate B of entry CCCCN(C)CC#Cc1ccc2[nH]c(C)c(Cl)c(=O)c2c1 [TCMDC-136185]
Completion: 101.22

Prompt: Which % inhibition, Replicate B reading was recorded for the molecule CNC(=O)c1ccccc1Nc1nc(Nc2ccc(N3CCOCC3)cc2)ncc1Cl.Cl [TCMDC-134144] ?
Completion: 105.55

====

Tested on: P. berghei ookinete development
condition.notes: primary screen at 1 μM, replicate A
measured.endpoint: % inhibition, Replicate A (%)
State just the number; it will be interpreted in %.

Prompt: For COc1ccc2nc3cc(Cl)ccc3c(NCCCN3CCNCC3)c2c1.Cl [TCMDC-137580] , what is its reported % inhibition, Replicate A?
Completion: 53.44

Prompt: % inhibition, Replicate A lookup needed for COCCn1c(-c2cccc(Cl)c2)nn(-c2ccc([N+](=O)[O-])cc2C#N)c1=S [TCMDC-134719] , thanks.
Completion: 64.09

Prompt: I am curious: what % inhibition, Replicate A value has been reported for Br.CC1(C)NC(N)=NC(=N)N1OCCSc1ccc(Cl)c(Cl)c1 [TCMDC-131704] ?
Completion: 51.68

Prompt: What % inhibition, Replicate A value was documented for this compound, Cl.N=C(N)NN=Cc1c2ccccc2c(Cl)c2c(Cl)cccc12 [TCMDC-137898] ?
Completion: 66.37

Prompt: # input compound: CC(C)(CN)c1nc(-c2ccc(Cl)c(O)c2)c(-c2ccncc2)[nH]1.Cl [TCMDC-140369] ; wanted: its % inhibition, Replicate A
Completion: 54.47

Prompt: Given CCc1cc2c3c(N)nc(N)nc3ccc2n1C(CC)CC [TCMDC-137309] , state its recorded % inhibition, Replicate A.
Completion: 48.79

Prompt: Reported % inhibition, Replicate A, compound Cc1cccc2nc(-c3ccc(-c4ccc(CN5CCCC(O)C5)cc4)cc3)[nH]c12.O=C(O)C(F)(F)F (centres unmarked) [TCMDC-133826] : ____
Completion: 58.08

Prompt: Returns the measured % inhibition, Replicate A for the input compound. Input: COc1ccc2nccc([C@@H](O)CN3CCC(NCc4cc5c(F)ccc(F)c5[nH]4)CC3)c2n1.CS(=O)(=O)O [TCMDC-140749]
Completion: 52.78
